This section presents compounds with their documented EC50 values.
# Tested on: HCV replicon (1b) in replicon cells
# assay.info: Cell-based HCV replicon assay (replicon RNA level by real time PCR, Taqman)
# test.conditions: Hepatitis C virus, 72 h, read-out: 1b EC50

Some solved entries appear below for comparison.
CCCCOC(=O)[C@H](C)NP(=O)(Oc1cccc2ccccc12)O[C@H](C)[C@H]1O[C@@H](n2ccc(N)nc2=O)[C@](C)(O)[C@@H]1O (stereo partly shown) : 10 µM
CCCCOC(=O)[C@H](C)NP(=O)(Oc1cccc2ccccc12)O[C@H](C)[C@H]1O[C@@H](n2cnc3c(=O)[nH]c(N)nc32)[C@](C)(O)[C@@H]1O (stereo partly shown) : > 100 µM
CCCCOC(=O)[C@H](C)NP(=O)(Oc1cccc2ccccc12)O[C@@H](C)[C@H]1O[C@@H](n2ccc(N)nc2=O)[C@](C)(O)[C@@H]1O (stereo partly shown) : > 100 µM

Reported EC50, compound CCCCOC(=O)[C@H](C)NP(=O)(Oc1cccc2ccccc12)O[C@H](C)[C@H]1O[C@@H](n2ccc(=O)[nH]c2=O)[C@](C)(O)[C@@H]1O (stereo partly shown) : ____
> 100 µM
